Some compounds, each annotated with its measured pIC50.
Target: GST-hRET kinase (658-1114) (Homo sapiens (Human))
Sequence (P07949 658-1114): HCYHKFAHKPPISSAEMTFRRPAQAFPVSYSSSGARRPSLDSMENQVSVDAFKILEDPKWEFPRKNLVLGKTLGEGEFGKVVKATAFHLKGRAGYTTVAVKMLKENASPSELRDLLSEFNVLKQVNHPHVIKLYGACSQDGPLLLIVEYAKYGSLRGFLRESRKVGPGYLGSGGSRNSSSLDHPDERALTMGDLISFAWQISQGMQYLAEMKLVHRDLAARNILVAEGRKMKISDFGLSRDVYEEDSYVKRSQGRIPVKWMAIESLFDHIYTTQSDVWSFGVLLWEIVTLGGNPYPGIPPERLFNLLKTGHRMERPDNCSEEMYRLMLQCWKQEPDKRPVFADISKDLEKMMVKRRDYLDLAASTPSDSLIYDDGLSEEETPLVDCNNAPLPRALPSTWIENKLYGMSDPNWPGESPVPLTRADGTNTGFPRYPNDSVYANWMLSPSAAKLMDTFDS
Scale explanation: pIC50 corresponds to minus log10 of a concentration expressed in moles per litre.

Recorded results for 2 compounds are shown here.
# test_smiles, pIC50
records = [
    ("COc1ccc(CN2CC=C(c3ccc(-c4cc(OCC(C)(C)O)cn5ncc(C#N)c45)cn3)CC2)cn1", 7.60),
    ("COc1ccc(CN2CC=C(c3ccc(-c4cc(-c5cnn(C)c5)cn5ncc(C#N)c45)cn3)CC2)cn1", 7.64),
]

Then there is this compound:
Query pIC50 on GST-hRET kinase (658-1114) (Homo sapiens (Human)) for COc1ccc(CN2C3CC2CN(c2ccc(-c4cc(CCC(C)(C)O)cn5ncc(C#N)c45)cn2)C3)cn1
8.25
